Molecular target: meprin α (Homo sapiens, UniProt Q16819)
Sequence (Q16819 66-593 limits assumed): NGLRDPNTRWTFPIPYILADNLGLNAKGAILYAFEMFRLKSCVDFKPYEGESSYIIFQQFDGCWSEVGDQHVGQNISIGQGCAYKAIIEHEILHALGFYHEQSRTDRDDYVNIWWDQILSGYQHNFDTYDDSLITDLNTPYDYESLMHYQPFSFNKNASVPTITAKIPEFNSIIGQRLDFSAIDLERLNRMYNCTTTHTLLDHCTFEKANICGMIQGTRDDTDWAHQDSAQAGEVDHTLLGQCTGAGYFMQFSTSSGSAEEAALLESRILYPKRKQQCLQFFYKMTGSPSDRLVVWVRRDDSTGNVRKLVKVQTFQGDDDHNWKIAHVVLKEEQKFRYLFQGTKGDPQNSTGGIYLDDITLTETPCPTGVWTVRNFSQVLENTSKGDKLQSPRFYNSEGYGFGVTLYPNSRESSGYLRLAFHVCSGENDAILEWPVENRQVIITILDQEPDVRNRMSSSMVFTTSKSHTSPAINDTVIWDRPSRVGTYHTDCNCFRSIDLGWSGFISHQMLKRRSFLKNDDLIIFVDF
Experiment: Meprin α assay, fluorogenic substrate (Mca)-YVADAPK-(K-ε-Dnp), 384 and 1536 well plate formats
Type: biochemical
Settings: 1536 wpf; 1.3 nM enzyme; substrate 5uM; time 30 min; read-out: Actinonin IC50
Description: The meprin α and meprin β assays, which utilize the substrates (Mca)-YVADAPK-(K-ε-Dnp) and (Mca)-EDEDED-(K-ε-Dnp), respectively, have been described previously. […] Both assays followed the same general protocol. […] Reactions were incubated at RT for 1 h, after which the fluorescence was measured using the Synergy H4 multimode microplate reader (Biotek Instruments) (λexcitation = 324 nm, λemission = 390 nm). […]
recorded-metric: IC50 (nM)
Response body: numeric value in nM, unit text excluded.

Measured IC50 of CCCCC[C@H](CC(=O)NO)C(=O)N[C@H](C(=O)N1CCC[C@H]1CO)C(C)C [Actinonin, actinonin] : 3.2
